measured_target: PAF receptor (human platelet plasma membranes) (Homo sapiens, UniProt P25105)
Construct: Platelet concentrates were obtained from a hospital blood bank
Sequence (P25105 whole entry): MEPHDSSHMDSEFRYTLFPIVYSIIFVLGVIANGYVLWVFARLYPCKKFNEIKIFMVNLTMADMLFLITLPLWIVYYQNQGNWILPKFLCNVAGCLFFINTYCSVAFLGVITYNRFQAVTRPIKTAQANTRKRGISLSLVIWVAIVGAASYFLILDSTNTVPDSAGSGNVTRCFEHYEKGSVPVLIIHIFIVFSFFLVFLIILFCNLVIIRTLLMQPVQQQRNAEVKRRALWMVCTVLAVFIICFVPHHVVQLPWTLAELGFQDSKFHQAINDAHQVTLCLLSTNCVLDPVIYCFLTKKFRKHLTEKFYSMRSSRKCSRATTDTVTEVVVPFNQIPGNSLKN
assay_procedure: Inhibition of [^3 H]-PAF receptor binding to human platelet plasma membranes
measurement_context: [^3 H]-PAF 0.5 nM, 0° C., 1 hour incubation, pH 7.0
Parameter: pIC50. Scope: all listed entries.
Scale: negative log10 of molar concentration, which is what pIC50 denotes.

{"compound": "CCCCCCCC1CCC(OCCCn2c(C)nc3cnccc32)O1 (centres unmarked)", "measured_target": "PAF receptor (human platelet plasma membranes) (Homo sapiens, UniProt P25105)", "pIC50": 6.92}

Specify reported pIC50 for the compound shown: CCCCCCCC1CCCC(OCCCn2c(C)nc3cnccc32)O1 (centres unmarked) 7.10
